system: HCT-15 colon; experiment: NCI-60 one-dose screen, 48 h (100 = growth as untreated, 0 = no growth, -100 = all killed); details: 10 µM unless noted
The panel holds about 83,000 compounds, 20% with a hit somewhere; the sample as a whole holds those more often.
// class assignment uses growth with these ranges: lower band: < 20%; central band: ≥ 20% and < 70%; upper band: ≥ 70%

Please indicate the class for Cn1cccc1C1CC(=O)N(CCC[Se]C#N)C1=O (stereo not drawn) based on its growth.
lower band

Please indicate the class for O=[N+]([O-])c1cc([N+](=O)[O-])c(Nn2c3ccccc3c3ccccc32)c([N+](=O)[O-])c1 based on its growth.
lower band

Please indicate the class for Cc1cc(C)cc(Nc2nc3c(s2)CC[C@@]2(C)C3=CC[C@@H]3[C@@H]2CC[C@]2(C)C(=O)CC[C@@H]32)c1 based on its growth.
lower band

Please indicate the class for CN[C@]1(c2ccccc2Cl)CCCC[C@H]1NCCCN1CCN(C)CC1 based on its growth.
upper band

Please indicate the class for Nc1c(F)cc(-c2nc3cc(F)ccc3[se]2)cc1Br based on its growth.
lower band

Please indicate the class for CCCCCCCOC(C(=O)OCCN(CC)CC)(c1ccccc1)c1ccccc1 based on its growth.
central band

Please indicate the class for C[N+]12CN3CN(CN(C3)C1)C2 based on its growth.
upper band

Please indicate the class for COC(=O)CC[C@H](Cc1ccccc1)NC(=O)c1csc([C@@H](C[C@H](C(C)C)N(C)C(=O)[C@@H](NC(=O)[C@H]2CCCCN2C)C(C)C)OC(C)=O)n1 based on its growth.
central band

---

tested on: NCI-H23 lung; assay: NCI-60 one-dose screen, 48 h (100 = growth as untreated, 0 = no growth, -100 = all killed); conditions: 10 µM unless noted
Compounds without any hit were thinned out: in the full panel of roughly 83,000, 20% have a hit. The source made the active and inactive calls. How the source made its calls: active means growth percent below 10; inactive means the rest.
readoutLabel: growth

COc1ccc(/C=C\c2cc(OC)c(OC)c(OC)c2)cc1NC(=O)/C=C/c1cc(OC)c(OC)c(OC)c1; 25.7% (inactive)

I have this molecule here, NC(=Nc1ccccc1)N[N+](=O)[O-] , and I need its recorded growth.
93.7% (inactive)

I have this molecule here, C=CCCCN=C=S , and I need its recorded growth.
82% (inactive)

I have this molecule here, CCCCCC1(CCBr)C(=O)NC(=O)NC1=O , and I need its recorded growth.
109% (inactive)

I have this molecule here, COC(=O)[C@@H](C)C[C@H](Cc1ccc2ccccc2c1)NC(=O)c1csc([C@@H](C[C@H](C(C)C)N(C)C(=O)[C@@H](NC(=O)[C@H]2CCCCN2C)C(C)C)OC(C)=O)n1 , and I need its recorded growth.
41.7% (inactive)

I have this molecule here, Cn1cc(-c2csc(-c3cn(CCCCN4CCCCC4)c4ccc(F)cc34)n2)c2cccnc21 , and I need its recorded growth.
79.8% (inactive)

I have this molecule here, C/C(=C\c1ccn(-c2ccc(N)cc2C(F)(F)F)n1)[C@@H]1C[C@@H]2O[C@]2(C)CCC[C@H](C)[C@H](O)[C@@H](C)C(=O)C(C)(C)[C@@H](O)CC(=O)O1 , and I need its recorded growth.
19.9% (inactive)

---

Consider the following compounds and their measured growth readings.
system: ACHN renal; test: NCI-60 one-dose screen, 48 h (100 = growth as untreated, 0 = no growth, -100 = all killed); conditions: 10 µM unless noted
The panel holds about 83,000 compounds, 20% with a hit somewhere; the sample as a whole holds those more often.
Answer in %, number only, no unit symbol.

I have this compound here, CN(C)C1C(=O)C(C(N)=O)=C(O)C2(O)C(=O)C3=C(O)c4c(O)cccc4C(C)(O)C3CC12.[Cl][Sb]([Cl])[Cl] (centres undefined) , and I need its recorded growth.
59

I have this compound here, CC1=C([Te]c2ccc(O)cc2)C(=O)c2ccccc2C1=O , and I need its recorded growth.
5.62

I have this compound here, CC1=C(CCCOC(=O)CN)C2=C(C)C3(CC3)[C@@](C)(O)C(=O)C2=C1 , and I need its recorded growth.
97.4
